Origin of the recorded values: ChEMBL document CHEMBL4689842

Test system: U2OS
Assay: Multiplex assay against U2OS
Type: toxicity, cell-based
Conditions: human, 48 h, 10 µM, compound concentration 10 uM, replicate 2
attribute_measured: Population Pyknosed Nuclei (%)
The reply should be a number in %, with the unit left off.

Here is how some molecules turned out for Population Pyknosed Nuclei (%).
molecule	tgt	attribute_measured	value_measured
CNc1cc(Oc2cc(C(=O)Nc3cc(N4CCN(C)CC4)cc(C(F)(F)F)c3)ccc2C)ncn1	U2OS	Population Pyknosed Nuclei (%)	31
COc1cc(N2CCN(C)CC2)ccc1Nc1ncc2c(n1)N(C)c1ccccc1C(=O)N2C	U2OS	Population Pyknosed Nuclei (%)	42
O=C(Nc1ccc(Cl)cc1)Nc1cccc(-c2cccc(N3CCCC3)n2)c1	U2OS	Population Pyknosed Nuclei (%)	53
CCCS(=O)(=O)c1nc(NC2CC2)cc(-c2ccc3c(ccn3C3CC(C)(C)NC(C)(C)C3)c2)n1	U2OS	Population Pyknosed Nuclei (%)	10
CCCn1c(=O)c2[nH]c(-c3cnn(Cc4cccc(C(F)(F)F)c4)c3)nc2n(CC)c1=O [GS 6201]	U2OS	Population Pyknosed Nuclei (%)	6

## Input Provide Population Pyknosed Nuclei (%) value for the following molecule: Cl.O=c1c2cccn2c2ccccc2n1CCCN1CCC(c2ccc(Cl)cc2)CC1
## Output 36

## Input Give Population Pyknosed Nuclei (%) for C=C1/C(=C\C=C2/CCC[C@]3(C)[C@@H]([C@H](C)/C=C/[C@H](C)C(C)C)CC[C@@H]23)C[C@@H](O)C[C@@H]1O [DOXERCALCIFEROL]
## Output 8

====

Test system: Fibroblast
Experiment: Multiplex assay against human fibroblast
Format: toxicity, cell-based
Settings: 24 h, 10 µM, compound concentration 10 uM, replicate 2
attribute_measured: Population Apoptotic (%)
Unit % implied. Number only.

The cases that follow already have their Population Apoptotic (%) on record.
compound	tgt	value_measured
CCN1CCN(Cc2ccc(Nc3ncc(F)c(-c4cc(F)c5nc(C)n(C(C)C)c5c4)n3)nc2)CC1.CS(=O)(=O)O	Fibroblast	97
CN1CCN(C(=O)C(C)(C)c2ccc(C(=O)Nc3cn4cc(-c5cc(C(C)(C)C)cc(C(C)(C)C)c5)ccc4n3)cc2)CC1	Fibroblast	33
S=C(NCCCc1c[nH]cn1)NCCCN(Cc1ccc(Cl)c(Cl)c1)c1ccc(Br)cn1	Fibroblast	100
COCC(=O)NC/C=C/c1ccc2ncnc(Nc3ccc(Oc4ccc(C)nc4)c(C)c3)c2c1	Fibroblast	60

## Input For COc1cc(N2CCN(C)CC2)ccc1Nc1ncc2c(n1)N(C)c1ccccc1C(=O)N2C , write its Population Apoptotic (%).
## Output 76

====

Tested on: Fibroblast
Test: Multiplex assay against human fibroblast
Type: toxicity, cell-based
Settings: 12 h, 1 µM, compound concentration 1 uM, replicate 2
Quick reference: Population Mitochondria Different-Phenotype (%) of the listed items.
Use % as the unit, but write only the number.

A selection of reference data follows.
smiles	unit_abbrev	value_measured
COC(=N)c1nc2ccc3ncnc(Nc4ccc(OC)cc4F)c3c2s1	%	6
COc1ccc(-c2ccc3c(N4CCOCC4)nc(N4C[C@@H](C)O[C@@H](C)C4)nc3n2)cc1CO	%	13
CCOc1cc2ncc(C#N)c(Nc3ccc(OCc4ccccn4)c(Cl)c3)c2cc1NC(=O)/C=C/CN(C)C	%	18
Cc1ccc2nc(NCCN)c3ncc(C)n3c2c1.O=C(O)C(F)(F)F.O=C(O)C(F)(F)F	%	22
CCc1cccc(CC)c1NC(=O)c1nn(C)c2c1CCc1cnc(Nc3ccc(N4CCN(C)CC4)cc3OC)nc1-2	%	75
O=C1N/C(=N/c2ccccc2F)S/C1=C\c1ccc(C(=O)O)cc1	%	16

## Input Tell me its Population Mitochondria Different-Phenotype (%) given COc1cccc2cc(-c3nc([C@H]4CC[C@H](C(=O)O)CC4)n4ncnc(N)c34)[nH]c12 as the entry.
## Output 18

## Input Note Population Mitochondria Different-Phenotype (%) for the compound shown: CCCS(=O)(=O)Nc1ccc(F)c(C(=O)c2c[nH]c3ncc(Cl)cc23)c1F
## Output 11

## Input Tell me Population Mitochondria Different-Phenotype (%) reported for O=C(Nc1ccc(-n2nc(-c3cccnc3)cc2C(F)(F)F)cn1)c1ccc(-c2ccccc2)c(F)c1
## Output 7

====

In this section, each of the molecules is paired with its reported Population Mitochondria Different-Phenotype (%).
Tested on: Fibroblast
Assay: Multiplex assay against human fibroblast
Assay type: toxicity, cell-based
Conditions: 24 h, 10 µM, compound concentration 10 uM, replicate 1
Report only the number, with the unit % understood.

molecule	value_measured
O=C1N/C(=N/c2ccccc2F)S/C1=C\c1ccc(C(=O)O)cc1	5
O=C(Nc1ccc(-c2ccnc(Nc3ccc(N4CCOCC4)cc3)n2)cc1)[C@@H]1CCCN1	21

## Input Please supply the value of reported Population Mitochondria Different-Phenotype (%) for the item C=C1/C(=C\C=C2/CCC[C@]3(C)[C@@H]([C@H](C)/C=C/[C@H](C)C(C)C)CC[C@@H]23)C[C@@H](O)C[C@@H]1O [DOXERCALCIFEROL]
## Output 6

====

Items are presented alongside their recorded Population Hoechst High Intensity Objects (%).
Tested on: Fibroblast
Assay: Multiplex assay against human fibroblast
Assay type: toxicity, cell-based
Details: 12 h, 10 µM, compound concentration 10 uM, replicate 2
Write it as a number; the unit % goes unstated.

molecule	value_measured
C=C1/C(=C\C=C2/CCC[C@]3(C)[C@@H]([C@H](C)/C=C/[C@H](C)C(C)C)CC[C@@H]23)C[C@@H](O)C[C@@H]1O [DOXERCALCIFEROL]	6

## Input Supply recorded Population Hoechst High Intensity Objects (%) for CN1CCC(=C2c3ccccc3CC(=O)c3sccc32)CC1.O=C(O)/C=C/C(=O)O [KETOTIFEN FUMARATE] here.
## Output 1

## Input # return recorded Population Hoechst High Intensity Objects (%) for input Cn1nc(C(F)(F)F)cc1-c1cnc(N2CCc3cc(S(=O)(=O)Nc4c(F)cc(Cl)cc4F)cc(N4CCCC4=O)c32)nc1 [TP-020]
## Output 41

## Input Check the records and state Population Hoechst High Intensity Objects (%) for Cc1ccc(C(=O)Nc2cccc(C(F)(F)F)c2)cc1Nc1nc(-c2cccnc2)nc2c1cnn2C
## Output 8

## Input Read off the recorded Population Hoechst High Intensity Objects (%) for CCn1cc(-c2ccnc3[nH]c(-c4cccc(CN(C)C)c4)cc23)c(-c2ccc(NC(=O)N(C)C)cc2)n1 [GSK-1070916]
## Output 49

## Input Quickly give me recorded Population Hoechst High Intensity Objects (%) for Cl.Oc1ccc2c3c1O[C@H]1c4[nH]c5c(c4C[C@@]4(O)[C@@H](C2)N(CC2CC2)CC[C@]314)C[C@@]1(O)[C@H]2Cc3ccc(O)c4c3[C@@]1(CCN2CC1CC1)[C@H]5O4
## Output 7

====

Test system: HEK-293T
Test: Multiplex assay against HEK293T
Type: toxicity, cell-based
Conditions: human, 24 h, 1 µM, compound concentration 1 uM, replicate 2
Measured Population Mitotic Cells (%), listed per entry for reference.
Answer in %, number only, no unit symbol.

compound	tgt	unit_abbrev	Population Mitotic Cells (%)
CCOc1cc2ncc(C#N)c(Nc3ccc(OCc4ccccn4)c(Cl)c3)c2cc1NC(=O)/C=C/CN(C)C	HEK-293T	%	80
COC(=N)c1nc2ccc3ncnc(Nc4ccc(OC)cc4F)c3c2s1	HEK-293T	%	82
O=C(Nc1ccc(-c2ccnc(Nc3ccc(N4CCOCC4)cc3)n2)cc1)[C@@H]1CCCN1	HEK-293T	%	82
O=C(Nc1ccc(Cl)cc1)Nc1cccc(-c2cccc(N3CCCC3)n2)c1	HEK-293T	%	90
Cl.O=C(c1ccc(Nc2nccc(-c3cc4ccccc4s3)n2)cc1)N1CCC(N2CCCC2)CC1	HEK-293T	%	96

## Input Note Population Mitotic Cells (%) for the compound shown: CN1C2CCC1CC(OC(c1ccc(F)cc1)c1ccc(F)cc1)C2.Cl (stereo unspecified)
## Output 77

====

Test system: U2OS
Test: Multiplex assay against U2OS
Assay type: toxicity, cell-based
Conditions: human, 24 h, 1 µM, compound concentration 1 uM, replicate 2
Each entry gets Criterion not met if its Population Hoechst High Intensity Objects (%) stays under 7%, and Criterion met if its Population Hoechst High Intensity Objects (%) is 7% or above.

// below: answered compounds
compound	class_assignment
O=C(Nc1cccnn1)N1CCC(=Cc2cccc(Oc3ccc(C(F)(F)F)cn3)c2)CC1	Criterion met
CN[C@@H]1C[C@H]2O[C@@](C)([C@@H]1OC)n1c3ccccc3c3c4c(c5c6ccccc6n2c5c31)C(=O)NC4	Criterion met
CN1C2CCC1CC(OC(c1ccc(F)cc1)c1ccc(F)cc1)C2.Cl (centres undefined)	Criterion not met

## Input I'd appreciate it if you could say whether CN(C)C(=O)C(CCN1CCC(O)(c2ccc(Cl)cc2)CC1)(c1ccccc1)c1ccccc1.Cl [LOPERAMIDE HYDROCHLORIDE] has Population Hoechst High Intensity Objects (%) at least equal to 7%.
## Output Criterion not met

## Input I'd appreciate it if you could say whether O=C(Nc1ccc(Cl)cc1)Nc1cccc(-c2cccc(N3CCCC3)n2)c1 has Population Hoechst High Intensity Objects (%) at least equal to 7%.
## Output Criterion not met

## Input Decide: is the reported value of Population Hoechst High Intensity Objects (%) for COc1cccc2cc(-c3nc([C@H]4CC[C@H](C(=O)O)CC4)n4ncnc(N)c34)[nH]c12 equal to or greater than 7%?
## Output Criterion not met
